Assay: in vivo
Details: female, CD-1, mouse, po, 5 mg/kg, Cmax
reported metric: Cmax (ng/mL)
# unit: ng/mL | format: bare number

Lookup result for CCc1nc2ccc(Cl)cn2c1C(=O)NCc1ccc(C2CC3(C2)CN(S(=O)(=O)C(F)(F)F)C3)cc1 [JNJ-2901] ; measured Cmax: 474

###

I'd appreciate it if you could supply IC50 values for the items below.
Molecular target: 1A2 (Homo sapiens, UniProt P05177)
Construct: from tissue; host or cells: human liver microsomes
Sequence (P05177 whole entry): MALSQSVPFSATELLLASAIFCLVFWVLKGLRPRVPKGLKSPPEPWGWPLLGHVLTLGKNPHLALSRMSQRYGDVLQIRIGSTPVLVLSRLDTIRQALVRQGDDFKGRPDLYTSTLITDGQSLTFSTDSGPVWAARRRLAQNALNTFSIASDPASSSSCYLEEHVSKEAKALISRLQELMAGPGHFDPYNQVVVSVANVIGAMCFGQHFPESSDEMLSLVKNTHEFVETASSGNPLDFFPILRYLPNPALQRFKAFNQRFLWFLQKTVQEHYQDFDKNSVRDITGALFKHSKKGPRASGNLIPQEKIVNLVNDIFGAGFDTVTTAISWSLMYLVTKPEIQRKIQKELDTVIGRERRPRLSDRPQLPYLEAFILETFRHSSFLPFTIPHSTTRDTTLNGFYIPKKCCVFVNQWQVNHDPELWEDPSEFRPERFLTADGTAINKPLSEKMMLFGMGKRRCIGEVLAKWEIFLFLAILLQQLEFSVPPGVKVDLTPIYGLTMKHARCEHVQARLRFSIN
Type: in vitro ADME

Short answer on 1A2 (Homo sapiens, UniProt P05177) for CCc1nc2ncc(C)cn2c1C(=O)NCc1ccc(N2CCN(S(=O)(=O)C(F)(F)F)C=N2)c(F)c1 , IC50: > 20 µM

Short answer on 1A2 (Homo sapiens, UniProt P05177) for CCc1nc2ccc(Cl)cn2c1C(=O)NCc1ccc(C2CC3(C2)CN(S(=O)(=O)C(F)(F)F)C3)cc1 , IC50: > 10 µM

###

Target: 2D6 (Homo sapiens)
Sequence (P10635 whole entry): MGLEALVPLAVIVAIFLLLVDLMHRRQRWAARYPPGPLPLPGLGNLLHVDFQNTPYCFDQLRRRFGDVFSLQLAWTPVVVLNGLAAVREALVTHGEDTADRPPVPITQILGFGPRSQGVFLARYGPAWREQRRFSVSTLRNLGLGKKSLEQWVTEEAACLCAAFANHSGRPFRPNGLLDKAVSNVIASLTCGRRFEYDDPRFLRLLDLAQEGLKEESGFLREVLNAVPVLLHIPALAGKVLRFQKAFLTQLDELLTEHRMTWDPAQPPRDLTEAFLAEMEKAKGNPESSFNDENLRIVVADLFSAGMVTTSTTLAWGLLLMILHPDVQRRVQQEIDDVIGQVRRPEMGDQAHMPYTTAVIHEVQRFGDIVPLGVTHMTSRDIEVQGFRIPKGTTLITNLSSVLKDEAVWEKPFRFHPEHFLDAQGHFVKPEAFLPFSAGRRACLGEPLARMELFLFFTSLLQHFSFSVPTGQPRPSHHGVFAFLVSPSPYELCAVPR
pIC50: −log10 of the molar value.
reported metric: pIC50

Lookup result for CCc1nc2ccc(Cl)cn2c1C(=O)NCc1ccc(C2CC3(C2)CN(S(=O)(=O)C(F)(F)F)C3)cc1 ; measured pIC50: < 5.00

Lookup result for CCc1nc2ncc(C)cn2c1C(=O)NCc1ccc(N2CCN(S(=O)(=O)C(F)(F)F)C=N2)c(F)c1 ; measured pIC50: < 4.70

###

Experiment: in vivo
Details: female, CD-1, mouse, po, 5 mg/kg
reported metric: bioavailability (%)
# unit: % | format: bare number

Lookup result for CCc1nc2ccc(Cl)cn2c1C(=O)NCc1ccc(C2CC3(C2)CN(S(=O)(=O)C(F)(F)F)C3)cc1 [JNJ-2901] ; measured bioavailability: 70

###

Test: in vivo
Conditions: CD-1, mouse, iv, 1 mg/kg
reported metric: Vd

Lookup result for CCc1nc2ccc(Cl)cn2c1C(=O)NCc1ccc(C2CC3(C2)CN(S(=O)(=O)C(F)(F)F)C3)cc1 [JNJ-2901] ; measured Vd: 4.4 L/kg

###

Molecular target: 2C9 (Homo sapiens, UniProt P11712)
Construct: from tissue; host or cells: human liver microsomes
Sequence (P11712 whole entry): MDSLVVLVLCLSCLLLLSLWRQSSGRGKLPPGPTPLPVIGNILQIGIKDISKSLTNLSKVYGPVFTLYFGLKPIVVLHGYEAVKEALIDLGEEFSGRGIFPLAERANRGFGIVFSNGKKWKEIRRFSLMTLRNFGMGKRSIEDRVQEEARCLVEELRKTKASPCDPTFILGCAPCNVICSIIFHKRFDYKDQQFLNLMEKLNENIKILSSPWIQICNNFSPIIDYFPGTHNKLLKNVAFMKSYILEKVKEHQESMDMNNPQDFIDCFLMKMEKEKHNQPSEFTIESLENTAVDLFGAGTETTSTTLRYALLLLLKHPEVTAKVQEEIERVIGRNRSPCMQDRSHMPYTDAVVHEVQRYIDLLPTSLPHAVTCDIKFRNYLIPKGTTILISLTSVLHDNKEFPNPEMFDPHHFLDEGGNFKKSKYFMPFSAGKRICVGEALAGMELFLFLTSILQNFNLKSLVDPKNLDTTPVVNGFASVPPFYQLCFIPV
Assay type: in vitro ADME
reported metric: IC50

Lookup result for CCc1nc2ncc(C)cn2c1C(=O)NCc1ccc(N2CCN(S(=O)(=O)C(F)(F)F)C=N2)c(F)c1 [JNJ-4052] ; measured IC50: > 20 µM

Lookup result for CCc1nc2ccc(Cl)cn2c1C(=O)NCc1ccc(C2CC3(C2)CN(S(=O)(=O)C(F)(F)F)C3)cc1 [JNJ-2901] ; measured IC50: > 10 µM

Data provenance: paper PMC12546632
